# Target: Human BCL-XL protein (N-terminal HiBiT tagged BCL-XL in HT1080 cells) (Homo sapiens, UniProt Q07817)
# Construct: expressed in transfected cells; host or cells: HT-1080 (ATCC CCL-121), stably transduced with lentivirus pLV-UBC-N-HiBiT-BCL-XL-PGK-puro and selected with puromycin
# Sequence (Q07817 whole entry): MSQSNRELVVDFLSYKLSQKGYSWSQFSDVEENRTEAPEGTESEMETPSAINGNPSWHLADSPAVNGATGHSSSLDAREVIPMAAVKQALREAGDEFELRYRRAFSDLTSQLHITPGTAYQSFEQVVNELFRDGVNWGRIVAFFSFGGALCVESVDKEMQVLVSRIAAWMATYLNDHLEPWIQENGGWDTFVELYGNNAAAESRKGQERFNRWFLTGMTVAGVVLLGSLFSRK
# Assay details: HiBiT based degradation assay
# Type: cell-based
# Run parameters: BCL-XL degradation normalized with DMSO control; HT1080 cells expressing HiBiT-BCL-XL; 24 h

Compound	Ymin (24 h)
Cc1c(O[C@H]2CC[C@H](CCC(=O)N3CCC(c4ccc5c(C6CCC(=O)NC6=O)nn(C)c5c4)CC3)CC2)cccc1-c1ccc(N2CCc3cccc(C(=O)Nc4nc5ccccc5s4)c3C2)nc1C(=O)O (stereo partly shown) [Compound 259a]	A (Ymin < 50%)
Cc1c(O[C@H]2CC[C@H](CCC[C@@H](C)N3CCN(c4cccc5c(C6CCC(=O)NC6=O)nn(C)c45)CC3)CC2)cccc1-c1ccc(N2CCc3cccc(C(=O)Nc4nc5ccccc5s4)c3C2)nc1C(=O)O (single isomer, unassigned) [Compound 349b]	A (Ymin < 50%)
Cc1c(OCCCc2ccc(CC(=O)Nc3ccc4c(C5CCC(=O)NC5=O)nn(C)c4c3)cn2)cccc1-c1ccc(N2CCc3cccc(C(=O)Nc4nc5ccccc5s4)c3C2)nc1C(=O)O (stereo not shown)	B (50% ≤ Ymin < 70%)
Cc1c(OCCCN2CCN(CC(=O)Nc3cccc4c(C5CCC(=O)NC5=O)nn(C)c34)C[C@@H]2C(F)(F)F)cccc1-c1ccc(N2CCc3cccc(C(=O)Nc4nc5ccccc5s4)c3C2)nc1C(=O)O (stereo partly shown) [Compound 246a]	B (50% ≤ Ymin < 70%)

###

# Target: Human BCL-XL protein (N-terminal HiBiT tagged BCL-XL in HT1080 cells) (Homo sapiens)
# Construct: expressed in transfected cells; host or cells: HT-1080 (ATCC CCL-121), stably transduced with lentivirus pLV-UBC-N-HiBiT-BCL-XL-PGK-puro and selected with puromycin
# Assay details: HiBiT based degradation assay
# Assay type: cell-based
# Run parameters: BCL-XL degradation; HT1080 cells expressing HiBiT-BCL-XL; 24 h; read-out: EC50 (24 h)
Parameter measured: DC50

Query: Record Cc1c(OCCC2CCN(CCCC3CCN(c4cccc5c(C6CCC(=O)NC6=O)nn(C)c45)CC3)CC2)cccc1-c1ccc(N2CCc3cccc(C(=O)Nc4nc5ccccc5s4)c3C2)nc1C(=O)O (stereo not drawn) [Compound 288] : what is its DC50 with Human BCL-XL protein (N-terminal HiBiT tagged BCL-XL in HT1080 cells) (Homo sapiens)?
Response: < 100 nM

Query: Try Cc1c(OCC[C@@H](C)C2CCN(CC(=O)Nc3ccc4c(C5CCC(=O)NC5=O)nn(C)c4c3)CC2)cccc1-c1ccc(N2CCc3cccc(C(=O)Nc4nc5ccccc5s4)c3C2)nc1C(=O)O (stereo partly drawn) [Compound 167a] next.
Response: < 100 nM

Query: Try Cc1cc(O[C@H](C)CCC2CCN(CC(=O)Nc3ccc4c(C5CCC(=O)NC5=O)nn(C)c4c3)CC2)ccc1-c1ccc(N2CCc3cccc(C(=O)Nc4nc5ccccc5s4)c3C2)nc1C(=O)O (stereo in doubt) [Compound 276a] next.
Response: < 100 nM

###

Reported DC50 values for the following compounds.
# Target: Human BCL-XL protein (N-terminal HiBiT tagged BCL-XL in HT1080 cells) (Homo sapiens, UniProt Q07817)
# Construct: expressed in transfected cells; host or cells: HT-1080 (ATCC CCL-121), stably transduced with lentivirus pLV-UBC-N-HiBiT-BCL-XL-PGK-puro and selected with puromycin
# Assay details: HiBiT based degradation assay
# Assay type: cell-based
# Run parameters: BCL-XL degradation; HT1080 cells expressing HiBiT-BCL-XL; 24 h; read-out: EC50 (24 h)

Compound	DC50
Cc1c(O[C@H]2CC[C@H](CCCC(=O)N3CCN(c4cccc5c(C6CCC(=O)NC6=O)nn(C)c45)CC3)CC2)cccc1-c1ccc(N2CCc3cccc(C(=O)Nc4nc5ccccc5s4)c3C2)nc1C(=O)O (stereo partly drawn) [Compound 214a]	< 100 nM
Cc1c(O[C@H]2CC[C@H]([C@@H](C)CCN3CCN(c4ccc5c(C6CCC(=O)NC6=O)nn(C)c5c4)CC3)CC2)cccc1-c1ccc(N2CCc3cccc(C(=O)Nc4nc5ccccc5s4)c3C2)nc1C(=O)O (single isomer, unassigned) [Compound 310b]	< 100 nM

Now turn to the next compound.
Query: Would you mind telling me what DC50 value was observed for Cc1c(OCCCc2ccc(CC(=O)Nc3ccc4c(C5CCC(=O)NC5=O)nn(C)c4c3)nc2)cccc1-c1ccc(N2CCc3cccc(C(=O)Nc4nc5ccccc5s4)c3C2)nc1C(=O)O (stereo not drawn) ?
Response: < 100 nM

###

# Target: Human BCL-XL protein (N-terminal HiBiT tagged BCL-XL in HT1080 cells) (Homo sapiens)
# Construct: expressed in transfected cells; host or cells: HT-1080 (ATCC CCL-121), stably transduced with lentivirus pLV-UBC-N-HiBiT-BCL-XL-PGK-puro and selected with puromycin
# Assay details: HiBiT based degradation assay
# Format: cell-based
# Run parameters: BCL-XL degradation normalized with DMSO control; HT1080 cells expressing HiBiT-BCL-XL; 24 h
Parameter measured: Ymin (24 h)

Compound	Target	Parameter measured	Result
Cc1c(OCC[C@@H](C)C2CCN(CC(=O)Nc3ccc4c(C5CCC(=O)NC5=O)nn(C)c4c3)CC2)cccc1-c1ccc(N2CCc3cccc(C(=O)Nc4nc5ccccc5s4)c3C2)nc1C(=O)O (stereo partly shown) [Compound 167a]	Human BCL-XL protein (N-terminal HiBiT tagged BCL-XL in HT1080 cells) (Homo sapiens)	Ymin (24 h)	A (Ymin < 50%)
Cc1cc(OCCC[C@@H]2CCN(CC(=O)Nc3ccc4c(C5CCC(=O)NC5=O)nn(C)c4c3)[C@H](C)C2)ccc1-c1ccc(N2CCc3cccc(C(=O)Nc4nc5ccccc5s4)c3C2)nc1C(=O)O (stereo partly shown) [Compound 344b]	Human BCL-XL protein (N-terminal HiBiT tagged BCL-XL in HT1080 cells) (Homo sapiens)	Ymin (24 h)	A (Ymin < 50%)
Cc1c(O[C@H]2CC[C@H](CCCCN3CCC[C@H](c4ccc5c(C6CCC(=O)NC6=O)nn(C)c5c4)C3)CC2)cccc1-c1ccc(N2CCc3cccc(C(=O)Nc4nc5ccccc5s4)c3C2)nc1C(=O)O (single isomer, unassigned) [Compound 352a]	Human BCL-XL protein (N-terminal HiBiT tagged BCL-XL in HT1080 cells) (Homo sapiens)	Ymin (24 h)	A (Ymin < 50%)

###

# Target: Human BCL-XL protein (N-terminal HiBiT tagged BCL-XL in HT1080 cells) (Homo sapiens, UniProt Q07817)
# Construct: expressed in transfected cells; host or cells: HT-1080 (ATCC CCL-121), stably transduced with lentivirus pLV-UBC-N-HiBiT-BCL-XL-PGK-puro and selected with puromycin
# Assay details: HiBiT based degradation assay
# Format: cell-based
# Run parameters: BCL-XL degradation normalized with DMSO control; HT1080 cells expressing HiBiT-BCL-XL; 24 h
Parameter measured: Ymin (24 h)

Here's what some known entries look like.
Compound	Ymin (24 h)
Cc1c(OCCCCC2CCN(CC(=O)Nc3cccc4c(C5CCC(=O)NC5=O)nn(C)c34)CC2)cccc1-c1ccc(N2CCc3cccc(C(=O)Nc4nc5ccccc5s4)c3C2)nc1C(=O)O (stereo not drawn) [Compound 213]	A (Ymin < 50%)
Cc1cc(OCCCN2CCN(CC(=O)N3CCN(c4ccc5c(C6CCC(=O)NC6=O)nn(C)c5c4)CC3)CC2)ccc1-c1ccc(N2CCc3cccc(C(=O)Nc4nc5ccccc5s4)c3C2)nc1C(=O)O (stereo not drawn) [Compound 153]	A (Ymin < 50%)
Cc1c(O[C@H]2CC[C@H](CC(F)(F)CN3CCN(c4ccc5c(C6CCC(=O)NC6=O)nn(C)c5c4)CC3)CC2)cccc1-c1ccc(N2CCc3cccc(C(=O)Nc4nc5ccccc5s4)c3C2)nc1C(=O)O (stereo partly drawn) [Compound 212a]	B (50% ≤ Ymin < 70%)
Cc1c(O[C@H]2CC[C@H](C[C@H](C)CN3CCN(c4cccc5c(C6CCC(=O)NC6=O)nn(C)c45)CC3)CC2)cccc1-c1ccc(N2CCc3cccc(C(=O)Nc4nc5ccccc5s4)c3C2)nc1C(=O)O (single isomer, unassigned) [Compound 284a]	A (Ymin < 50%)

Query: Would you mind telling me what Ymin (24 h) value was observed for Cc1c(OCCC2CCN(CCN3CCN(c4cccc5c(C6CCC(=O)NC6=O)nn(C)c45)CC3)CC2)cccc1-c1ccc(N2CCc3cccc(C(=O)Nc4nc5ccccc5s4)c3C2)nc1C(=O)O (stereo not drawn) [Compound 233] ?
Response: A (Ymin < 50%)

Query: Try Cc1c(OCCCCCCCCN2CCN(c3cccc4c(C5CCC(=O)NC5=O)nn(C)c34)CC2)cccc1-c1ccc(N2CCc3cccc(C(=O)Nc4nc5ccccc5s4)c3C2)nc1C(=O)O (stereo not drawn) [Compound 217] next.
Response: B (50% ≤ Ymin < 70%)

Query: Try Cc1c(OCCC2CCN(CCN3CCC(c4ccc5c(C6CCC(=O)NC6=O)nn(C)c5c4)CC3)CC2)cccc1-c1ccc(N2CCc3cccc(C(=O)Nc4nc5ccccc5s4)c3C2)nc1C(=O)O (stereo not drawn) [Compound 248] next.
Response: A (Ymin < 50%)

Query: Try Cc1c(OCCCC2CC3(C2)CN(CC(=O)Nc2ccc4c(C5CCC(=O)NC5=O)nn(C)c4c2)C3)cccc1-c1ccc(N2CCc3cccc(C(=O)Nc4nc5ccccc5s4)c3C2)nc1C(=O)O (stereo not drawn) [Compound 286] next.
Response: A (Ymin < 50%)
